- System: XF498
- assay comment: Concentration required for inhibiting proliferation of human brain tumor cell line XF 498 after 72 hr of incubation was determined
- Format: functional, cell-based
- condition set: XF498, 72 h
pIC50: −log10 of the molar value.
measurement name: pIC50

# annotated cases, reported pIC50 shown
compound="CC1(c2ccccc2)CC(=O)C(C2CC(c3ccc(-c4ccc(Br)cc4)cc3)Cc3ccccc32)=C(O)O1 (centres undefined)" reported_measurement=5.87
compound="CCC1(c2ccccc2)CC(=O)C(C2CC(c3ccc(-c4ccc(Br)cc4)cc3)Cc3ccccc32)=C(O)O1 (centres undefined)" reported_measurement="< 5.00"
compound="CC1(c2ccccc2)CC(=O)C(C(CC(=O)c2ccc(-c3ccc(Br)cc3)cc2)c2ccccc2)=C(O)O1 (centres undefined)" reported_measurement=5.17
compound="CCC1(c2ccccc2)CC(=O)C(C2CC(c3ccc(OC)cc3)Cc3ccccc32)=C(O)O1 (centres undefined)" reported_measurement="< 5.00"
compound="CCC1(c2ccccc2)CC(=O)C(C(CC(=O)c2ccc(-c3ccc(Br)cc3)cc2)c2ccccc2)=C(O)O1 (centres undefined)" reported_measurement=5.18
compound="CCCC1(CCc2ccccc2)CC(=O)C(C2CC(c3ccc(-c4ccc(Br)cc4)cc3)Cc3ccccc32)=C(O)O1 (centres undefined)" reported_measurement="< 5.00"
compound="CCCC1(c2ccccc2)CC(=O)C(C(CC(=O)c2ccc(-c3ccc(Br)cc3)cc2)c2ccccc2)=C(O)O1 (centres undefined)" reported_measurement="< 5.00"
compound="COc1ccc(C2Cc3ccccc3C(C3=C(O)OC(C)(c4ccccc4)CC3=O)C2)cc1 (centres undefined)" reported_measurement="< 5.00"

Next compound, please.
Input line: Enter reported pIC50 observed with XF498 for CCC1(c2ccccc2)CC(=O)C(C2CC(c3ccc(OCc4ccc(C(F)(F)F)cc4)cc3)Cc3ccccc32)=C(O)O1 (centres undefined)
Output line: < 5.00
